experiment: Tmax in Sprague-Dawley rat at 0.1 mg/kg, po measured up to 8 hrs by LC-MS/MS analysis; assay type: ADME, organism-based; conditions: in vivo
readout_label: Tmax (h)
Please reply with the bare figure in h and do not write the unit itself.

Any idea what Tmax was measured for O=C(O)c1ccc2nc(-c3cc(Cl)cc(Cl)c3)oc2c1 ?
8

====

assay: AUC infinity in Sprague-Dawley rat at 0.1 mg/kg, iv measured up to 8 hrs by LC-MS/MS analysis; assay type: ADME, organism-based; parameters: route intravenous, dose 0.1 mg/kg, time <=8; conditions: in vivo
readout_label: AUC(0-inf) (ng·h/mL)
Please reply with the bare figure in ng·h/mL and do not write the unit itself.

Any idea what AUC(0-inf) was measured for O=C(O)c1ccc2nc(-c3cc(Cl)cc(Cl)c3)oc2c1 ?
4330
